Tested on: 422866-222-R5-J1-PDC spheroids with HUVEC/MSC, viability
Measurement description: Anticancer human tumor 422866-222-R5-J1-PDC patient-derived pancreatic adenocarcinoma cell line growth inhibition [GQUAD]
Settings: compound alone; run of 04/16/2024
Listed here: items and their measured IC50.
Parameter: IC50

# Compound smiles, Parameter, Test value
measured = [
    ("Cc1cnc(CNC(=O)c2c(=O)c3ccc(N4CCCN(C)CC4)nc3n3c2sc2ccccc23)cn1", "IC50", "> 10 µM"),
    ("Cc1[nH]c2ccc(F)cc2c1-c1nc2c3cccnc3c3ncccc3c2[nH]1", "IC50", "> 10 µM"),
]

----------
System: 422866-222-R5-J1-PDC spheroids with HUVEC/MSC, viability
Measurement description: Anticancer human tumor 422866-222-R5-J1-PDC cell line growth inhibition [GQUAD];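 also: spheroids exposed to compounds for seven days before reading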;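 as to viability, T/C: percent viability relative to DMSO vehicle control taken as 100%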
Settings: second compound 3.16 µM; first compound 1 µM; stronger effect = lower value

# Compound, viability, T/C
measured = [
    ("C#Cc1c(F)ccc2cc(O)cc(-c3ncc4c(N5CC6CCC(C5)N6)nc(OCC56CCCN5CC(F)C6)nc4c3F)c12 (stereo not given) + Cc1cnc(CNC(=O)c2c(=O)c3ccc(N4CCCN(C)CC4)nc3n3c2sc2ccccc23)cn1", "58.2%"),
    ("C#Cc1c(F)ccc2cc(O)cc(-c3ncc4c(N5CC6CCC(C5)N6)nc(OCC56CCCN5CC(F)C6)nc4c3F)c12 (stereo not given) + Cc1[nH]c2ccc(F)cc2c1-c1nc2c3cccnc3c3ncccc3c2[nH]1", "42.8%"),
    ("CC1COCCN1c1cc(-c2ccnn2C)c2ccnc(-c3ccn[nH]3)c2n1 (stereo not given) + CN(C)c1ccc(Nc2c3ccc(NC(=O)CCN4CCCC4)cc3nc3cc(NC(=O)CCN4CCCC4)ccc23)cc1", "39.7%"),
    ("Cc1cccc(N(C)C(=O)C2C(O)CCN2c2nc(C)cc(C(F)(F)F)c2C#N)c1 (stereo not given) + Cc1cnc(CNC(=O)c2c(=O)c3ccc(N4CCCN(C)CC4)nc3n3c2sc2ccccc23)cn1", "79.7%"),
    ("O=C(NO)c1cnc(N2CCN(S(=O)(=O)c3ccc4ccccc4c3)CC2)nc1 + CN(C)c1ccc(Nc2c3ccc(NC(=O)CCN4CCCC4)cc3nc3cc(NC(=O)CCN4CCCC4)ccc23)cc1", "30.7%"),
]

----------
System: 422866-222-R5-J1-PDC spheroids with HUVEC/MSC, viability
Measurement description: Anticancer human tumor 422866-222-R5-J1-PDC cell line growth inhibition [GQUAD];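 also: spheroids exposed to compounds for seven days before reading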;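 as to viability, T/C: percent viability relative to DMSO vehicle control taken as 100%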
Settings: second compound 0.316 µM; first compound 0.00316 µM; stronger effect = lower value
Checkbox rule: viability, T/C lower than 90% = YES; viability, T/C not lower than 90% = NO.

# Compound, Measured on, Assigned class
rows = [
    ("CC[C@@]1(O)C(=O)OCc2c1cc1n(c2=O)Cc2cc3c(CN(C)C)c(O)ccc3nc2-1 + Cc1cnc(CNC(=O)c2c(=O)c3ccc(N4CCCN(C)CC4)nc3n3c2sc2ccccc23)cn1", "422866-222-R5-J1-PDC spheroids with HUVEC/MSC, viability", "YES"),
    ("CCc1c2c(nc3ccc(O)cc13)-c1cc3c(c(=O)n1C2)COC(=O)[C@]3(O)CC + Cc1[nH]c2ccc(F)cc2c1-c1nc2c3cccnc3c3ncccc3c2[nH]1", "422866-222-R5-J1-PDC spheroids with HUVEC/MSC, viability", "YES"),
    ("Cc1[nH]c2ccccc2c1CCNCc1ccc(/C=C/C(=O)NO)cc1 + Cc1cnc(CNC(=O)c2c(=O)c3ccc(N4CCCN(C)CC4)nc3n3c2sc2ccccc23)cn1", "422866-222-R5-J1-PDC spheroids with HUVEC/MSC, viability", "YES"),
    ("Cc1[nH]c2ccccc2c1CCNCc1ccc(/C=C/C(=O)NO)cc1 + Cc1[nH]c2ccc(F)cc2c1-c1nc2c3cccnc3c3ncccc3c2[nH]1", "422866-222-R5-J1-PDC spheroids with HUVEC/MSC, viability", "NO"),
]
